These measurements were taken from patent US20250163056A1.

assay: Photostability, percentage remaining undegraded under illumination or in the dark; settings: percentage remaining undegraded after 24 hours illumination
The class of a record is decided solely by its measured Photostability 24 hours; consult low = under 10%, medium = from 10% up to 80%, high = 80% and over

>>> answer_label("Cc1cc2c(cc1C)C(=O)[C@]1(O)CCN(c3cnc4c(c3)NCCO4)C1=N2")
"low"
>>> answer_label("Cc1cc2c(cc1C)C(=O)[C@]1(O)CCN(c3ccc4c(c3)NCCC4)C1=N2")
"medium"
>>> answer_label("Cc1sc2c(c1C)C(=O)[C@]1(O)CCN(c3ccc(Cl)cc3)C1=N2")
"high"
>>> answer_label("N#Cc1ccc(N2CC[C@@]3(O)C(=O)c4c(sc5c4CCCC5)N=C23)cc1")
"high"
>>> answer_label("Cc1cc2c(cc1C)C(=O)[C@]1(O)CCN(c3ccc4ncsc4c3)C1=N2")
"low"

Task item: // bin(item) where item = CCc1cc2c(s1)N=C1N(c3ccc4ccoc4c3)CC[C@@]1(O)C2=O
Reply: low

Task item: Where would Cc1cc2c(cc1C)C(=O)[C@]1(O)CCN(c3ccc4c(c3)NCCO4)C1=N2 land among the classes by reported Photostability 24 hours?
Reply: medium

Task item: # bin lookup: classify Cc1ccc2c(c1)C(=O)[C@]1(O)CCN(c3cc4cccnc4s3)C1=N2 by its Photostability 24 hours
Reply: medium

Task item: Given Cc1cc2c(cc1F)C(=O)[C@]1(O)CCN(c3ccc(C#N)cc3)C1=N2 , name the class its Photostability 24 hours places it in.
Reply: medium

Task item: Hey, which category is Cc1ccc2c(c1)C(=O)[C@]1(O)CCN(c3ccc4occc4c3)C1=N2 in, do you know?
Reply: medium

Task item: The entry to classify is COc1cc(N2CC[C@@]3(O)C(=O)c4cc(C)c(C)cc4N=C23)ccn1 ; which class holds it?
Reply: high

Task item: Would you mind sorting CCc1cc2c(s1)N=C1N(c3ccc(OC)cc3)CC[C@@]1(O)C2=O into the appropriate category?
Reply: low

Task item: Class? Entry: CCc1cc2c(s1)N=C1N(c3ccc(C#N)c(C)c3)CC[C@@]1(O)C2=O
Reply: high

Task item: Form field 'band' for Cc1cc2c(cc1C)C(=O)[C@]1(O)CCN(c3cnc4sccc4c3)C1=N2
Reply: low

Task item: Into which category would you place Cc1cc2c(cc1C)C(=O)[C@]1(O)CCN(c3cnn(C)c3)C1=N2 ?
Reply: low
